- Tested on: barnyardgrass (Echinochloa crus-galli)
- Measurement protocol: Test A postemergence application, visual injury rating 0-100
- Assay type: in vivo
- Measurement parameters: Postemergence, 125 g ai/ha, 10 days; 0 is no effect, 100 is complete control
- Excerpt: […]
Give measured Barnyardgrass plant response rating (0 to 100 scale) for each item. Keep answers brief.
Number only, please.

Query: Barnyardgrass plant response rating (0 to 100 scale) for CNC(=O)C1C=CC(NC(=O)C2(C)CN(c3cc(Cl)cc(Cl)c3)C(=O)O2)C1 (stereo not shown) ?
Response: 0

Query: Name the recorded Barnyardgrass plant response rating (0 to 100 scale) for COC(=O)COC(=O)C1C=CC(NC(=O)C2(C)CN(c3cc(Cl)cc(Cl)c3)C(=O)O2)C1 (stereo not shown) .
Response: 100

Query: Would you mind telling me what Barnyardgrass plant response rating (0 to 100 scale) value was observed for CC1(C(=O)NC2C=CC(C(=O)O)C2)CN(c2cc(Cl)cc(Cl)c2)C(=O)O1 (stereo not shown) ?
Response: 100

Query: Using the record for CC1(C(=O)NC2C=CC(C(=O)OC3CCCC3)C2)CN(c2cc(F)cc(F)c2)C(=O)O1 (stereo not shown) , report its Barnyardgrass plant response rating (0 to 100 scale).
Response: 100
